target: UniProt Q96FI4; details: Compound Concentration 1.0 uM, Hit No
Sequence (Q96FI4 whole entry): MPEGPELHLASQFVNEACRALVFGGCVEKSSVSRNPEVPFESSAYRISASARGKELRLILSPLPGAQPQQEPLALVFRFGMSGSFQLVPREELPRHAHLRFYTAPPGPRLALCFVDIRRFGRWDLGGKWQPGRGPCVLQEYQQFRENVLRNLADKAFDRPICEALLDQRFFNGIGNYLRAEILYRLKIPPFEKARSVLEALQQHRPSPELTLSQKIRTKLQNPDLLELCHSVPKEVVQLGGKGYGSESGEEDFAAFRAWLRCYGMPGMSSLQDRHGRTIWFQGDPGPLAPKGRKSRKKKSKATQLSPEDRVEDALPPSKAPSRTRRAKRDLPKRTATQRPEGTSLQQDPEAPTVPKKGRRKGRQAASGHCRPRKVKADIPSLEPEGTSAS
RECORDED ENDPOINT: inhibition
Provide a numeric answer, followed by its unit.

Cc1cc(Nc2nccc(C)n2)cc(-c2cnc([C@@]3(O)CC[C@H](C(=O)O)C(C)(C)C3)s2)c1 :: -7.58%
Nc1c(C(=O)NCc2ccc(C(=O)NCCCC3CCCCC3)cc2)cnn1-c1ccccc1 :: -2.11%
Cn1cc(-c2[nH]c3cc(NC(=O)[C@H](N)C4CCCCC4)cc4c3c2C=NNC4=O)cn1 :: -1.18%
CC(C)(C)c1cc(NC(=O)Nc2ccc(-c3cn4c(n3)sc3cc(OCCN5CCOCC5)ccc34)cc2)no1 :: 5.55%
CCOc1cn(-c2ccc(F)cc2C)nc1C(=O)Nc1ccc(Oc2ccnc3cc(OC)c(OC)cc23)c(F)c1 :: 0.138%

Note inhibition for the compound shown: O=C(c1ccc(F)cc1)N1CC(COc2ccc(Br)cc2)(C(=O)O)C1
-7.26%

Note inhibition for the compound shown: CN1C(=O)c2sccc2N(C)c2nc(Nc3ccc(S(N)(=O)=O)cc3)ncc21
-7.66%

Note inhibition for the compound shown: CNC(=O)Nc1ccc2c(c1)CC[C@@]21OC(=O)N(CC(=O)N(Cc2ccc(F)cc2)[C@@H](C)C(F)(F)F)C1=O
-8.77%

Note inhibition for the compound shown: CNCc1ccccc1-c1csc([C@H](C)Nc2nc(C)nc3cc(OC)c(OC)cc23)c1
-4.23%

Note inhibition for the compound shown: COc1cc(Nc2ncc3c(n2)-c2ccc(Cl)cc2C(c2c(F)cccc2OC)=NC3)ccc1C(=O)O
-3.03%

Note inhibition for the compound shown: Cc1ccc(-c2cnc([C@@]3(O)CC[C@H](C(=O)O)C(C)(C)C3)s2)cc1Nc1cccc(C(F)(F)F)n1
-1.05%

* * *

Entries and their inhibition
molecular target: Methyl-CpG-binding domain protein 4 (Homo sapiens) (UniProt O95243); details: Compound Concentration 10.0 uM, Hit No;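 further: MBD4 activity read as fluorescence at 594 nm from cleavage and release of a quenched duplex DNA oligonucleotide, with APE1 coupled to incise the strand and raise turnover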
Sequence (O95243 whole entry, the tested form may be a part): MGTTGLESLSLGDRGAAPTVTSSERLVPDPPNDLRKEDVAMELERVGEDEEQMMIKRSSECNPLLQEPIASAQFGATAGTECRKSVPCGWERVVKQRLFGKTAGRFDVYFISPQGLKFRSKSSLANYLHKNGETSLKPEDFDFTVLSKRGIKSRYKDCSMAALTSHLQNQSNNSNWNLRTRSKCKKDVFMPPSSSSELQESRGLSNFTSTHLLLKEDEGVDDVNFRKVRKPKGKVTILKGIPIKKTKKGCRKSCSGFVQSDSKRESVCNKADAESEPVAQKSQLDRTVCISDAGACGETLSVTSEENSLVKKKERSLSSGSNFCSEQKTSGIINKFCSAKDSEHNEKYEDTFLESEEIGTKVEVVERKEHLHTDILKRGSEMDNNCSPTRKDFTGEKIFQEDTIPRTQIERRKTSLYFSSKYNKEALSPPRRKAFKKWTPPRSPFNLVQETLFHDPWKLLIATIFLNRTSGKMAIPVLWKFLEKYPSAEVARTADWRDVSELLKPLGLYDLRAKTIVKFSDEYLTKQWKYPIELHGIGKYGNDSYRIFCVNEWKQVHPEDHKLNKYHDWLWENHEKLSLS
Description: Inhibition of MBD4 by quantifying inhibition of MBD4-mediated cleavage and dissociation of quenched duplex DNA oligonucleotides, measured as fluorescence at 594 nm. To generate a functional strand incision and increase turn-over this assay is coupled to APE1.
Field: numeric (%). Do not append units.

Consider the reported inhibition for these molecules:
CCC[C@H]1CNCc2c1[nH]c(=O)c(C#N)c2N1CCC2(CC1)CC2 :: 58.5
CC(/C=C1\SC(=S)N(CCCC(=O)Nc2ccc(C(=O)O)c(O)c2)C1=O)=C\c1ccccc1 :: 64
CC[C@H]1CN(c2nc(N)c(C(N)=O)nc2Cl)CCN1C1CCN(Cc2ccc(Cl)cc2)CC1 :: -2.17

Note inhibition for the molecule shown: CN([C@@H]1CCc2c(CC(=O)O)c3ccccc3n2C1)S(=O)(=O)c1ccc(F)cc1
28.2

Note inhibition for the molecule shown: CCc1cc(C(C)=O)c(O)cc1OCCCCCC(C)(C)c1nn[nH]n1
24

Note inhibition for the molecule shown: O=C(O)CC/C=C\C[C@@H]1CO[C@H](c2ccccc2Cl)O[C@@H]1c1ccccc1O
0.092

Note inhibition for the molecule shown: O=C1c2cccc3c2[C@H](CCC3)CN1[C@@H]1CN2CCC1CC2
0.552

Note inhibition for the molecule shown: CNC(=O)c1cc(C(=O)N[C@H]2[C@@H]3COC[C@@H]32)cc2c1O[C@@H](CF)[C@@H]2c1ccccc1
54.8

Note inhibition for the molecule shown: CCOC(=O)C1=C[C@]2(CC)CCCN3CCc4c(n1c1ccccc41)[C@@H]32
-4.24

* * *

Entries and their inhibition
biological target: Uracil-DNA glycosylase (Homo sapiens) (UniProt P13051); conditions: Compound Concentration 1.0 uM, Hit No;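 further: UNG excision on a quenched double-stranded DNA oligo probe, with APE1 added for strand incision and turnover, read as fluorescence at 594 nm as strands separate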
Sequence (P13051 whole entry): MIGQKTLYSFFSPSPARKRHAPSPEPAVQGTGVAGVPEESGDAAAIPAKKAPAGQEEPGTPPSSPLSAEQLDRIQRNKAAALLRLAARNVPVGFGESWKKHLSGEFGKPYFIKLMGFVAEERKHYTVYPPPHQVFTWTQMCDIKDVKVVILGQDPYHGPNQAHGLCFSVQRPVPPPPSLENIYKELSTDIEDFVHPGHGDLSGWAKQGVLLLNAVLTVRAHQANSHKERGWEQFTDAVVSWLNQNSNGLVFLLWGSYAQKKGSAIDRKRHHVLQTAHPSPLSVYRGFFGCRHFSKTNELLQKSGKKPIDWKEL
Description: Inhibition of UNG by quantifying inhibition of UNG-mediated cleavage and dissociation of quenched duplex DNA oligonucleotides, measured as fluorescence at 594 nm. To generate a functional strand incision and increase turn-over this assay is coupled to APE1.
Field: numeric (%). Do not append units.

NC1(c2ccc(-c3nc4c(O)ccnn4c3-c3ccccc3)cc2)CCC1 :: 7.66
Cc1c(NC(=O)c2cc(C(N)=O)nc3cc(F)ccc23)c(C(F)(F)F)nn1Cc1ccc(C(C)(C)C)cc1 :: 0.116
C[C@H](NC(=O)c1cn(C2(C#N)CC2)cn1)C(=O)Nc1nc(-c2cccc(-c3ccn(C)n3)c2)cs1 :: 1.27

Shift focus to the following entry.
Note inhibition for the molecule shown: O=C(Nc1ccc(-n2nc(-c3cccnc3)cc2C(F)(F)F)cn1)c1ccc(-c2ccccc2)c(F)c1
6.15

* * *

target: N-glycosylase/DNA lyase (Homo sapiens) (UniProt O15527); details: Compound Concentration 10.0 uM, Hit No
Sequence (O15527 whole entry): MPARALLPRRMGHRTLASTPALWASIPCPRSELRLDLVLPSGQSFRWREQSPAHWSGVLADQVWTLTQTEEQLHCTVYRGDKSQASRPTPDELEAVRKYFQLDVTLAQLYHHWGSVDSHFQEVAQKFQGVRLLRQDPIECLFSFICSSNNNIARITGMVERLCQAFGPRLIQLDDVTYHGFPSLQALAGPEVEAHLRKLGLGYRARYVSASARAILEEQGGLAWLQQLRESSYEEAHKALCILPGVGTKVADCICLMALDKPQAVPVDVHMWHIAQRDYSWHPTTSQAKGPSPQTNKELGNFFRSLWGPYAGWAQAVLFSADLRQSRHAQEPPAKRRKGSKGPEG
Description: Inhibition of OGG1 by quantifying inhibition of OGG1-mediated cleavage and dissociation of quenched duplex DNA oligonucleotides, measured as fluorescence at 594 nm. To generate a functional strand incision and increase turn-over this assay is coupled to APE1.
Entries and their inhibition
Field: numeric (%). Do not append units.

Note inhibition for the molecule shown: O=c1nc(-c2ccccn2)sc2ccccc12
10.7

Note inhibition for the molecule shown: N[C@H](C(=O)O)c1ccc(C(=O)O)c(C(=O)O)c1
-7.96

Note inhibition for the molecule shown: COc1cc(-c2cn[nH]c2)ccc1C(=O)Nc1ccc2c(c1)CCNCC2
2.14

Note inhibition for the molecule shown: CCOC(=O)c1cc(C#N)c(N2CCC(C(=O)NS(=O)(=O)Cc3ccccc3)CC2)nc1C
4.63

Note inhibition for the molecule shown: O=C1CCc2cc(Nc3cc(OC4CCOCC4)c([N+](=O)[O-])cc3Cl)ccc2N1
46.7

Note inhibition for the molecule shown: Cc1cc(-n2nc(Cc3cc(F)cc(C(F)(F)F)c3)nc2C)ccc1C(N)=O
-5.77

Note inhibition for the molecule shown: CC(=O)Nc1ccc(-c2cc(-c3ccccc3)nc3cc(C(=O)NCCCn4ccnc4)nn23)cc1
-1.79

Note inhibition for the molecule shown: CCCn1c(=O)c2nc(C34CC5CC(CC3C5)C4)[nH]c2n(CCC)c1=O
-1.3

Note inhibition for the molecule shown: O=C(Nc1cccnc1)c1cc(-c2ccnc(F)c2)ccc1OCc1ccccc1
6.84

Note inhibition for the molecule shown: CN(C)CCn1cc(S(=O)(=O)c2cccc(F)c2)c2cccnc21
-9.57

* * *

Entries and their inhibition
biological target: Adenine DNA glycosylase (Homo sapiens) (UniProt Q9UIF7); settings: Compound Concentration 10.0 uM, Hit No;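 further: human MUTYH activity read as 594 nm fluorescence from cleavage and release of a quenched DNA duplex, coupled with APE1 for strand incision, lower signal meaning inhibition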
Sequence (Q9UIF7 whole entry): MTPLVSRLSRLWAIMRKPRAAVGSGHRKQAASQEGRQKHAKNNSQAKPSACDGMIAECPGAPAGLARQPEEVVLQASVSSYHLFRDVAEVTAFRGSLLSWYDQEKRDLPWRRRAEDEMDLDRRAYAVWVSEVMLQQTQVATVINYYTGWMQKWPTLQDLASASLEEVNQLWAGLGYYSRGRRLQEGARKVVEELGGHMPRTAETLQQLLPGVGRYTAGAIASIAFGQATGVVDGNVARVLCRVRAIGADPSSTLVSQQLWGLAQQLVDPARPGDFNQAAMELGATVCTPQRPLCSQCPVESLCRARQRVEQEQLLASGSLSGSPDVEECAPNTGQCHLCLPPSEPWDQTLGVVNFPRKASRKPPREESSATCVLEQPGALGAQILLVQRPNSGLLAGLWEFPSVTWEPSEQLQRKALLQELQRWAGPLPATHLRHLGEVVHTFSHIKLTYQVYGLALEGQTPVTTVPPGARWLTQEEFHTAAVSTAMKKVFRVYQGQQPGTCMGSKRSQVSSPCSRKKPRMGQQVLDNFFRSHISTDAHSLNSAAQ
Description: Inhibition of MUTYH by quantifying inhibition of MUTYH-mediated cleavage and dissociation of quenched duplex DNA oligonucleotides, measured as fluorescence at 594 nm. To generate a functional strand incision and increase turn-over this assay is coupled to APE1.
Field: numeric (%). Do not append units.

CCOC(=O)c1cc(C#N)c(N2CCC(C(=O)NS(=O)(=O)Cc3ccccc3)CC2)nc1C :: 13.3

Note inhibition for the compound shown: CC(C)C[C@H](NC(=O)N1CCCCCC1)C(=O)N[C@H](Cc1cn(C)c2ccccc12)C(=O)N[C@H](Cc1ccccn1)C(=O)O
9.62

Note inhibition for the compound shown: CCOC(=O)c1c(C)[nH]c2ccc3c(c12)CN1CCc2cc(OC)ccc2C1O3 (stereo unspecified)
18.2

Note inhibition for the compound shown: FC(F)(F)c1ccccc1-c1cc(C(F)(F)F)c2[nH]c(C3=NOC4(CCCCC4)C3)nc2c1
-3.71

Note inhibition for the compound shown: CC1(C)CC(=O)c2c(SCCO)sc(-c3nccs3)c2C1
15.5

Note inhibition for the compound shown: O=C(NCC12CC3CC(CC(C3)C1)C2)c1ccccc1Cl
21.2

Note inhibition for the compound shown: O=C(O)c1ccc(S(=O)(=O)N(Cc2ccc(OC(F)(F)F)cc2)c2ncc(C(F)(F)F)cc2Cl)cc1
61.2

* * *

target: N-glycosylase/DNA lyase (Homo sapiens); details: Compound Concentration 1.0 uM, Hit No
RECORDED ENDPOINT: inhibition (%)
Field: numeric (%). Do not append units.

Cc1cc(Nc2nccc(C)n2)cc(-c2cnc([C@@]3(O)CC[C@H](C(=O)O)C(C)(C)C3)s2)c1 :: 9.85
O=C(Nc1ccc(Oc2ccc(F)cc2)cc1)N1CCc2ncccc2[C@H]1c1ccc(F)cc1 :: -3.07
COc1ncc(-c2ccc3nccc(-c4ccnnc4)c3c2)cc1NS(=O)(=O)c1ccc(F)cc1F :: 1.04
Cc1c(Oc2ccc(F)cc2)c(OC(C)C)nn1-c1ccc(C2CC2)cn1 :: 10.1
CCOC(=O)c1c(/C(C#N)=C\N)c2ccc(Cl)c(Cl)c2n1C :: -3.98

Note inhibition for the compound shown: C[C@@H]1CCN(C(=O)CC#N)C[C@@H]1N(C)c1ncnc2[nH]ccc12
4.23

Note inhibition for the compound shown: O=C(NOC[C@H](O)CO)c1ccc(F)c(F)c1Nc1ccc(I)cc1F
-3.87

Note inhibition for the compound shown: NC1(c2ccc(-c3nc4c(O)ccnn4c3-c3ccccc3)cc2)CCC1
10.4

Note inhibition for the compound shown: CCc1cc(Nc2nccc(-c3c(-c4ccc(OC)c(C(=O)Nc5c(F)cccc5F)c4)nc4ccccn34)n2)c(OC)cc1N1CCC(N2CCN(S(C)(=O)=O)CC2)CC1
10.7

* * *

target: G/T mismatch-specific thymine DNA glycosylase (Homo sapiens); details: Compound Concentration 10.0 uM, Hit No
Description: Inhibition of TDG by quantifying inhibition of TDG-mediated cleavage and dissociation of quenched duplex DNA oligonucleotides, measured as fluorescence at 594 nm. To generate a functional strand incision and increase turn-over this assay is coupled to APE1.
Entries and their inhibition
Field: numeric (%). Do not append units.

N#Cc1cccc(-c2nc(-c3cccnc3)no2)c1 :: -5.18

Provide inhibition, tested on G/T mismatch-specific thymine DNA glycosylase (Homo sapiens), for CCc1nc2c(C)cc(C)nc2[nH]1 .
-2.03

Provide inhibition, tested on G/T mismatch-specific thymine DNA glycosylase (Homo sapiens), for N=C(N)NC(=O)Cc1c(Cl)cccc1Cl .
3.06

Provide inhibition, tested on G/T mismatch-specific thymine DNA glycosylase (Homo sapiens), for OC1(c2ccc(Cl)cc2)CCN(Cc2c[nH]c3ccccc23)CC1 .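 Further: human TDG cleavage of quenched duplex DNA oligonucleotides coupled to APE1, strand release read as fluorescence at 594 nm, inhibition of TDG activity.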
17.2

* * *

Entries and their inhibition
target: N-glycosylase/DNA lyase (Homo sapiens) (UniProt O15527); settings: Compound Concentration 10.0 uM, Hit No;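 further: OGG1 cleavage of a quenched duplex DNA oligonucleotide, coupled to APE1 for strand incision, read as fluorescence at 594 nm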
Field: numeric (%). Do not append units.

OCc1cc(C(O)CNCCCCCCOCCCCc2ccccc2)ccc1O (stereo unspecified) :: -5.95
NCC(O)c1ccc(O)cc1 (stereo unspecified) :: -0.921
CC(C)c1noc(N2CCC(COc3ccc(-c4ccc(S(C)(=O)=O)cc4)nc3)CC2)n1 :: 3.18
NS(=O)(=O)c1cc(NC(=O)Cc2ccccc2)ccc1Oc1cccc(Cl)c1 :: 16.9
O=C(NNC(=O)c1ccc(CNS(=O)(=O)c2ccc(F)c(Cl)c2)cc1)c1ccccc1 :: 13.2

Shift focus to the following entry.
Note inhibition for the compound shown: CCCCN(CCCC)C(=O)CN1C[C@@H](c2cc(OC)c3c(c2)OCO3)[C@H](C(=O)O)[C@H]1CC(C)(C)CCC
44.6
